Catalogue of compounds with associated pIC50
- Tested on: BXPC-3
- RUN DESCRIPTION: Cytotoxicity in human BXPC-3 cells assessed as reduction in cell viability incubated for 24 hrs by CCK8 assay
- Assay type: functional, cell-based
- RUN PARAMETERS: BXPC-3, 24 h
pIC50: −log10 of the molar value.
VALUE KIND: pIC50

COMPOUND | RESULT QUALIFIER | RECORDED VALUE
CN[C@@H]1C[C@H]2O[C@@](C)([C@@H]1OC)n1c3ccccc3c3c4c(c5c6ccccc6n2c5c31)C(=O)NC4=O (stereo in doubt; 15) | = | 6.37
CN1CCN(c2nc(C3=C(c4c[nH]c5ccccc45)C(=O)NC3=O)c3ccccc3n2)CC1 | < | 5.49

====

Measured pIC50 values are reported for all entries that follow.
- TARGET OR TEST SYSTEM: Protein kinase C theta type (Homo sapiens)
- Sequence (Q04759 whole entry): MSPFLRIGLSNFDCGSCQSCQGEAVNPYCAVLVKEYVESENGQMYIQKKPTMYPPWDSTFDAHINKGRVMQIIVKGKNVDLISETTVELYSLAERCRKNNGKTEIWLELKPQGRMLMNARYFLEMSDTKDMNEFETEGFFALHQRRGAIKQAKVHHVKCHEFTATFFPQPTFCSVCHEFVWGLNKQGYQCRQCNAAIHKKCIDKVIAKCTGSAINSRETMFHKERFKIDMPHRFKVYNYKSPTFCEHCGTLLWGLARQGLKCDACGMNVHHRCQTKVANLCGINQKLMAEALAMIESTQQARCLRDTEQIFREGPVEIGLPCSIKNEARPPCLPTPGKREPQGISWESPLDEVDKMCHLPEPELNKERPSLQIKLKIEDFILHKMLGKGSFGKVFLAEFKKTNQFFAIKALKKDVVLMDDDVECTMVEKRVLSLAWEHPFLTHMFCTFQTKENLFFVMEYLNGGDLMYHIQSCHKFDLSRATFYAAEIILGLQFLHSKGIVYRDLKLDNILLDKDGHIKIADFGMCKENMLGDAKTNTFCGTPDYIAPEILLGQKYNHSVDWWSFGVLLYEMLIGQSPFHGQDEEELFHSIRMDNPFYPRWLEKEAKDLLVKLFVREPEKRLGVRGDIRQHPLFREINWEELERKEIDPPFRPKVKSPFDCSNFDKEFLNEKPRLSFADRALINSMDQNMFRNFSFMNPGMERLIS
pIC50: −log10 of the molar value.
VALUE KIND: pIC50

COMPOUND | RESULT QUALIFIER | RECORDED VALUE
C[C@@H]1O[C@@H](n2c3ccccc3c3c4c(c5c6ccccc6[nH]c5c32)CNC4=O)C[C@@H](N)[C@H]1OC(O)C1CO1 (stereo not given in full) | = | 5.24
CNC(=O)C[C@H]1O[C@@](C)(C(=O)OC)n2c3ccccc3c3c4c(c5c6ccccc6n1c5c32)C(=O)NC4 | < | 5.60
CO[C@@H]1[C@@H](O)[C@@H](O)[C@H]2O[C@]1(C)n1c3ccccc3c3c4c(c5c6ccccc6n2c5c31)C(=O)NC4 | = | 6.00
C[C@@H]1O[C@@H]2C[C@](O)([C@H]1O)n1c3ccccc3c3c4c(c5c6ccccc6n2c5c31)C(=O)NC4 | = | 5.72
C[C@@H]1O[C@@H](n2c3ccccc3c3c4c(c5c6ccccc6[nH]c5c32)C(=O)NC4=O)C[C@@H](N)[C@H]1O | = | 5.93
C[C@@H]1O[C@@H]2C[C@](O)([C@H]1O)n1c3ccccc3c3c4c(c5c6cc(O)ccc6n2c5c31)C(=O)NC4 | < | 5.60
CO[C@@H]1[C@@H](O)[C@@H](O)[C@H]2O[C@]1(C)n1c3ccccc3c3c4c(c5c6ccccc6n2c5c31)C(=O)N[C@H]4OC | < | 5.60
C[C@@H]1O[C@@H](n2c3ccccc3c3c4c(c5c6ccccc6[nH]c5c32)CNC4=O)C[C@@H](NC=O)[C@H]1O | < | 5.60
C[C@]12O[C@H](C[C@]1(O)C(=O)O)n1c3ccccc3c3c4c(c5c6ccccc6n2c5c31)C(=O)NC4=O | = | 5.73
CO[C@@H]1[C@H](O)C[C@H]2O[C@]1(C)n1c3ccccc3c3c4c(c5c6ccccc6n2c5c31)C(=O)NC4 | = | 5.89
O=C1NC(O)c2c1c1c3ccccc3[nH]c1c1[nH]c3ccccc3c21 (stereo not given) | < | 5.60
CO[C@@H]1[C@@H](O)[C@@H](O)[C@H]2O[C@]1(C)n1c3ccccc3c3c4c(c5c6ccccc6n2c5c31)C(=O)N[C@@H]4O | < | 5.60
C[C@@H]1O[C@@H](n2c3ccc(O)cc3c3c4c(c5c6ccccc6[nH]c5c32)CNC4=O)C[C@@H](N)[C@H]1O | < | 5.60
CO[C@@H]1[C@H](NC(=O)C(=O)c2c[nH]c3ccccc23)C[C@H]2O[C@]1(C)n1c3ccccc3c3c4c(c5c6ccccc6n2c5c31)C(=O)NC4 | = | 5.75
CO[C@@H]1[C@@H](O)[C@@H](O)[C@H]2O[C@]1(C)n1c3ccccc3c3c4c(c5c6ccccc6n2c5c31)C(=O)N[C@H]4O | = | 5.65
COc1cc(/C=C(/C(N)=O)n2c3ccccc3c3c4c(c5c6ccccc6[nH]c5c32)CNC4=O)ccc1O | < | 5.60
CNn1c2ccccc2c2c3c(c4c5ccccc5[nH]c4c21)C(=O)NC3 | < | 5.60
O=C1NCc2c1c1c3ccccc3[nH]c1c1[nH]c3ccccc3c21 | < | 5.60
O=C1NC(=O)c2c1c1c3ccccc3[nH]c1c1[nH]c3ccccc3c21 | < | 5.60
CC(=O)N[C@@H]1C[C@H](n2c3ccc(O)cc3c3c4c(c5c6ccccc6[nH]c5c32)CNC4=O)O[C@@H](C)[C@@H]1O | = | 6.55
COC1NC(=O)c2c1c1c3ccccc3[nH]c1c1[nH]c3ccc(O)cc3c21 (stereo not given) | < | 5.60
CO[C@@H]1[C@@H](O)[C@@H](O)[C@H]2O[C@]1(C)n1c3ccccc3c3c4c(c5c6ccccc6n2c5c31)C(=O)NC4=O | = | 5.85
C[C@@H]1O[C@@H](n2c3ccccc3c3c4c(c5c6ccccc6[nH]c5c32)CNC4=O)C[C@@H](N)[C@H]1O | = | 6.59
CN[C@]1(C(=O)OC)C[C@H]2O[C@]1(C)n1c3ccccc3c3c4c(c5c6ccccc6n2c5c31)C(=O)NC4 | < | 5.60
C[C@H]1O[C@@H]2C[C@](O)([C@@H]1O)n1c3ccccc3c3c4c(c5c6ccccc6n2c5c31)C(=O)NC4 | < | 5.60
CN[C@@H]1C[C@H]2O[C@@](C)([C@@H]1OC)n1c3ccccc3c3c4c(c5c6ccccc6n2c5c31)C(=O)NC4=O (stereo in doubt; 14) | = | 7.77
CO[C@@H]1[C@H](O)[C@H](O)[C@H](C)O[C@H]1n1c2ccccc2c2c3c(c4c5ccccc5[nH]c4c21)CNC3=O | = | 5.03
COC(=O)[C@H]1C[C@H]2O[C@]1(C)n1c3ccccc3c3c4c(c5c6ccccc6n2c5c31)C(=O)NC4 | = | 5.77
C[C@@H]1O[C@@H](n2c3ccccc3c3c4c(c5c6ccccc6[nH]c5c32)C(=O)NC4=O)C[C@@H](NC=O)[C@H]1O | = | 5.32
CC(=O)N[C@@H]1C[C@H](n2c3ccccc3c3c4c(c5c6ccccc6[nH]c5c32)CNC4=O)O[C@@H](C)[C@@H]1O | < | 5.60

====

- Tested on: PC-9
- RUN DESCRIPTION: Cytotoxicity in human PC-9 cells assessed as reduction in cell viability incubated for 24 hrs by CCK8 assay
- Type: functional, cell-based
- RUN PARAMETERS: PC-9, 24 h
Consider the following compounds and their measured IC50 readings.

COMPOUND | UNIT OF MEASURE | RESULT QUALIFIER | IC50
CN[C@@H]1C[C@H]2O[C@@](C)([C@@H]1OC)n1c3ccccc3c3c4c(c5c6ccccc6n2c5c31)C(=O)NC4=O (stereo in doubt; 15) | µM | = | 1.88
CN1CCN(c2nc(C3=C(c4c[nH]c5ccccc45)C(=O)NC3=O)c3ccccc3n2)CC1 [SOTRASTAURIN] | µM | > | 3.2

====

- TARGET OR TEST SYSTEM: Protein kinase C delta type (Homo sapiens, UniProt Q05655)
- Sequence (Q05655 whole entry): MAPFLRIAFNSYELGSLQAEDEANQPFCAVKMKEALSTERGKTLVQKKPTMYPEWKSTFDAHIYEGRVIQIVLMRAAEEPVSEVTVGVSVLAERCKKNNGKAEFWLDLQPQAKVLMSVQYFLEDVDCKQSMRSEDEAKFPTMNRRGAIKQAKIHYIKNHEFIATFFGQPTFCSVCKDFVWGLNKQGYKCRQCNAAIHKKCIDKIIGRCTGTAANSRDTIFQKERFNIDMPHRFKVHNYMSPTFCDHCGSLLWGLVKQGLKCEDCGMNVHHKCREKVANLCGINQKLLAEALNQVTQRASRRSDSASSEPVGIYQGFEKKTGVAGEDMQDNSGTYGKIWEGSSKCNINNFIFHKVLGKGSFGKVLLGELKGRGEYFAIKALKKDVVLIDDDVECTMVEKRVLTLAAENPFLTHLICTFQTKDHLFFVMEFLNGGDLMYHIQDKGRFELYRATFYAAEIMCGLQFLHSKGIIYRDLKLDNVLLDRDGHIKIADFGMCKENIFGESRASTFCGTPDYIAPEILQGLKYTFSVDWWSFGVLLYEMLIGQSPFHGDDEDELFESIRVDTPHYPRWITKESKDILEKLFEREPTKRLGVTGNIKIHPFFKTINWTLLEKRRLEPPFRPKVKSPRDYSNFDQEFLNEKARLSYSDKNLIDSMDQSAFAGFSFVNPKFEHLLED
- RUN DESCRIPTION: Inhibition of PKCdelta (unknown origin) by HTRF assay
VALUE KIND: IC50 (µM)

COMPOUND | TARGET OR TEST SYSTEM | UNIT OF MEASURE | RECORDED VALUE
CN[C@@H]1C[C@H]2O[C@@](C)([C@@H]1OC)n1c3ccccc3c3c4c(c5c6ccccc6n2c5c31)C(=O)NC4=O (stereo in doubt; 15) | Protein kinase C delta type (Homo sapiens, UniProt Q05655) | µM | 0.021

====

- Tested on: MGC-803
- RUN DESCRIPTION: Cytotoxicity in human MGC-803 cells assessed as reduction in cell viability incubated for 24 hrs by CCK8 assay
- Format: functional, cell-based
- RUN PARAMETERS: MGC-803, 24 h
VALUE KIND: IC50 (nM)

COMPOUND | TARGET OR TEST SYSTEM | RESULT QUALIFIER | RECORDED VALUE
CN[C@@H]1C[C@H]2O[C@@](C)([C@@H]1OC)n1c3ccccc3c3c4c(c5c6ccccc6n2c5c31)C(=O)NC4=O (stereo in doubt; 15) | MGC-803 | = | 1520
CN1CCN(c2nc(C3=C(c4c[nH]c5ccccc45)C(=O)NC3=O)c3ccccc3n2)CC1 | MGC-803 | > | 3200

====

pIC50: −log10 of the molar value.
Notes on pIC50 obtained with Protein kinase C theta type (Homo sapiens).

COMPOUND | RESULT QUALIFIER | pIC50
COC1=C(C)O[C@@H]2C[C@@]1(OC)n1c3ccccc3c3c4c(c5c6ccccc6n2c5c31)C(=O)NC4 | = | 6.43
C[C@H]1O[C@@H]2C[C@](O)([C@H]1O)n1c3ccccc3c3c4c(c5c6cc(O)ccc6n2c5c31)C(=O)NC4 | < | 5.60
CO[C@@H]1[C@H](N(C)C=O)C[C@H]2O[C@]1(C)n1c3ccccc3c3c4c(c5c6ccccc6n2c5c31)C(=O)NC4 | = | 6.60
COC(=O)[C@@]1(OC)C[C@H]2O[C@]1(C)n1c3ccccc3c3c4c(c5c6ccccc6n2c5c31)C(=O)NC4 | = | 6.28
CC(=O)N[C@H]1C[C@H]2O[C@@](C)([C@@H]1O)n1c3ccccc3c3c4c(c5c6ccccc6n2c5c31)C(=O)NC4 | = | 6.57
CN[C@@H]1C[C@H]2O[C@@](C)([C@@H]1OC)n1c3ccccc3c3c4c(c5c6ccccc6n2c5c31)C(=O)NC4=O (stereo in doubt; 15) | = | 8.22
C[C@]12O[C@H](C[C@]1(O)C(=O)O)n1c3ccccc3c3c4c(c5c6ccccc6n2c5c31)CNC4=O | = | 5.25
CO[C@@H]1[C@H](N(C)C(C)=O)C[C@H]2O[C@]1(C)n1c3ccccc3c3c4c(c5c6ccccc6n2c5c31)C(=O)NC4 | = | 6.77
CO[C@H]1NC(=O)c2c1c1c3ccccc3n3c1c1c2c2ccccc2n1[C@@H]1O[C@@]3(C)[C@H](OC)[C@@H](O)[C@H]1O | = | 6.05
